src = patent US11407767B2

Consider the following compounds; for each one, report its pIC50.
- Test System: CDK12/CycK (Homo sapiens)
- Sequence (Q9NYV4 whole entry): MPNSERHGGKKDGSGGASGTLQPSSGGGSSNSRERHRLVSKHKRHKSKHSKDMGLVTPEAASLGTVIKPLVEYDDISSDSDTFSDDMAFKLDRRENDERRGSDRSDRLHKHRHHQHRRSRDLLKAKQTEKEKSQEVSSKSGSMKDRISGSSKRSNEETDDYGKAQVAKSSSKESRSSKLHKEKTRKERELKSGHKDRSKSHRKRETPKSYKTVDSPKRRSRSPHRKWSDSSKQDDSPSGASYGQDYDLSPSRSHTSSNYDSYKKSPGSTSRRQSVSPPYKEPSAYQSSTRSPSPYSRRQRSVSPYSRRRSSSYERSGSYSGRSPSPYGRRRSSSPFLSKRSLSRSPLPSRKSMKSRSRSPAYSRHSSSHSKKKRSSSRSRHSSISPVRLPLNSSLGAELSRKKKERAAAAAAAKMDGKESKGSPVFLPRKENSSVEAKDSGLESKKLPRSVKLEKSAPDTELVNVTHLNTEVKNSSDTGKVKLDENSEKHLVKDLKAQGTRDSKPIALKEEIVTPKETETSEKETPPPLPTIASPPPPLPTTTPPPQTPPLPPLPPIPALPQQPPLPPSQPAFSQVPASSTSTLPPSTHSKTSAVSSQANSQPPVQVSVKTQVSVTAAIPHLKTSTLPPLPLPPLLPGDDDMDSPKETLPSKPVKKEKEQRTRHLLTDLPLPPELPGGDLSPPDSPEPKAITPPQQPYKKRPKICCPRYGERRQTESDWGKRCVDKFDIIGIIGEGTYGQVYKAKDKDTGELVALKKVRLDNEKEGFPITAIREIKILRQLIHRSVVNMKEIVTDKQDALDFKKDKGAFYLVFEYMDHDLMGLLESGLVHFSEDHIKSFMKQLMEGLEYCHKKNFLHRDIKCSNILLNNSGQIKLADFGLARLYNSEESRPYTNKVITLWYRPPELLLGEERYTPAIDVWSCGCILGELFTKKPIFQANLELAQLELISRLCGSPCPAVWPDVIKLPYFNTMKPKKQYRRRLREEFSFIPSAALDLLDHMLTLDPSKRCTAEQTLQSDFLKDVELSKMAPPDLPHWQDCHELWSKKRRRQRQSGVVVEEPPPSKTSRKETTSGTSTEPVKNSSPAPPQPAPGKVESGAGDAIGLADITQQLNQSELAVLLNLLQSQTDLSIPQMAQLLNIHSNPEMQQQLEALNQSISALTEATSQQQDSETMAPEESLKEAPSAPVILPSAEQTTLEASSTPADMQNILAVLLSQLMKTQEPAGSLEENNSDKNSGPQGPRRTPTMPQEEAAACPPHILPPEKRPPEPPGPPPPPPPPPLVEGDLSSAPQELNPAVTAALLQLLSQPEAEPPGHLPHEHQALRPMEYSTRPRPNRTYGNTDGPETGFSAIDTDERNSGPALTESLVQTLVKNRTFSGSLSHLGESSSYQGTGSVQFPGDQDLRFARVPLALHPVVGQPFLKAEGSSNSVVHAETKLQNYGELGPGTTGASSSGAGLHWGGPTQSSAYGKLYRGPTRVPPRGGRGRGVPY
- Sequence (O75909 whole entry partner): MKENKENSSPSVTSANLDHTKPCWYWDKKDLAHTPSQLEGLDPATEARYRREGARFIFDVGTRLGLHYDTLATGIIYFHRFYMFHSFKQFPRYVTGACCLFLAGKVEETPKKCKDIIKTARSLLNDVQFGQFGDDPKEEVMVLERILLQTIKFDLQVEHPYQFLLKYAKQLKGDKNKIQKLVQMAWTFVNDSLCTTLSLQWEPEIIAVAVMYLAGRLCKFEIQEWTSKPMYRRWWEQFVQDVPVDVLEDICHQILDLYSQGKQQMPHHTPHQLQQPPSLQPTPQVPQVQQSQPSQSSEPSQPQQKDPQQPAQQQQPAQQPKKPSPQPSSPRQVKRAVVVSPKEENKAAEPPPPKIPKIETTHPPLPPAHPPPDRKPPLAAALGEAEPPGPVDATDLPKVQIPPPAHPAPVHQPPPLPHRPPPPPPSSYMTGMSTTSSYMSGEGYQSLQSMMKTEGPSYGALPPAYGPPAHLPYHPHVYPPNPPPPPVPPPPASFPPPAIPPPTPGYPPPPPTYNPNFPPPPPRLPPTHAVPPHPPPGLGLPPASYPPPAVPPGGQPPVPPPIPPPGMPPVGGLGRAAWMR
- Protocol Notes: Inhibition of CDK12 (ADP-Glo kinase assay)
- Experimental Context: 60 nM CDK12/CycK, 30 minutes pre-incubation, 1 μM ATP, 0.5 μM RBER-IRStide substrate, 1 h at 25° C., read-out: CDK12/cyclin K IC50
- Procedure: Assay buffer comprised 50 mM HEPES pH 7.5, 1 mM DTT, 20 mM MgCl2, 3 mM MnCl2, 3 μM Na3VO4 and 50 μg/ml PEG8000. Kinase reactions were carried out in 384-well Optiplates™ (PerkinElmer 6007299). […] Incubations were carried out for 1 h at 25° C. with kinase activity determined using the ADP-Glo™ reagent from Promega according to the manufacturer's instructions. Light generated is proportional to kinase activity and measured using a luminometer (EnVision, PerkinElmer). […]
pIC50: −log10 of the molar value.

Task item: Give the value of pIC50 reported for the following: C=CC(=O)N1CCO[C@@H](C(=O)NCCc2cc3c(-c4cnn5ncccc45)ccnc3[nH]2)C1 (single isomer, unassigned) [Example 61]
Reply: > 7.00

Task item: Specify measured pIC50 for C=CC(=O)N1CCC(C(=O)NCCc2cc3c(-c4cnn5ncccc45)ccnc3[nH]2)CC1 [Example 77] .
Reply: 6.00 to 7.00

Task item: Output measured pIC50 for this item: O=C(NCCc1cc2c(-c3cnn4ncccc34)ccnc2[nH]1)[C@H]1CCCN1C(=O)CO [Example 79]
Reply: 6.00 to 7.00

Task item: Identify the reported pIC50 for the following entry. C=CC(=O)Nc1ccc(C(=O)N2CC[C@@H](c3cc4c(-c5cnn6ncccc56)ccnc4[nH]3)C2)cc1 (single isomer, unassigned) [Example 148]
Reply: > 7.00

Task item: Respond only with pIC50 recorded for CN(C)C/C=C/C(=O)N1CCCC[C@H]1C(=O)NCCc1cc2c(-c3cnn4ncccc34)ccnc2[nH]1 [Example 87]
Reply: 4.52 to 6.00
